Molecular target: HLA-DRB1*0101 (human)
Assay: competition binding
Details: modification not given
Measurement label: IC50 (µM)
Give just the numeric value; µM need not be written.

// recorded IC50 for GTLRGYYNQSEAGSH [p15] : 0.456
